inhibition at 200 µM values by entry
- Target Desc: Mtb proteasome (Mycobacterium tuberculosis)
- Construct: Proteasome activity of the supernatants was assessed; endogenous in cells; host or cells: Mycobacterium tuberculosis H37Ra (crude lysate supernatant)
- Sequence (P9WHT9 58-291): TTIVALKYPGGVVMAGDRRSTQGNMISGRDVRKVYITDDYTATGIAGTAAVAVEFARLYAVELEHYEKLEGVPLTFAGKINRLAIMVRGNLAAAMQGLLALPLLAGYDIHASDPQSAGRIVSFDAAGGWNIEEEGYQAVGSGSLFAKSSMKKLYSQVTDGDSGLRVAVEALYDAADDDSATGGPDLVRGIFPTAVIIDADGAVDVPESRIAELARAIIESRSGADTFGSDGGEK
- Sequence (P9WHU1 whole entry partner): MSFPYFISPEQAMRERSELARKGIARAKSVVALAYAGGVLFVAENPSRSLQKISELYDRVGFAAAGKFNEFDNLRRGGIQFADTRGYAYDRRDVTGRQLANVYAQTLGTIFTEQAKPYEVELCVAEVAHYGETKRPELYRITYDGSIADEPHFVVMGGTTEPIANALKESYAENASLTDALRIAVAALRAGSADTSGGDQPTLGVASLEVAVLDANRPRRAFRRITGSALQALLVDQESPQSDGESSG
- Assay Name: biochemical
- Assay Setup: 0.5 h, read-out: IA: inhibitory activity of Mtb proteasome
Hi! Could you send only the number? It should be in %, unit omitted.

Example compounds with recorded inhibition at 200 µM:
O=C1Nc2ccccc2/C1=C1/Nc2ccccc2C1=O [indirubin] = 46
O=c1ccc2ccc(O)c(O)c2o1 [daphnetin] = 0

Request: Name the recorded inhibition at 200 µM for COC(=O)C1=CO[C@@H](O[C@@H]2O[C@H](CO)[C@@H](O)[C@H](O)[C@H]2O)[C@@H]2C(CO)=CC[C@H]12 [geniposide] .
Response: 0

Request: Name the recorded inhibition at 200 µM for COc1c(O)cc(O)c2c(=O)cc(-c3ccccc3)oc12 [wogonin] .
Response: 54

Request: Name the recorded inhibition at 200 µM for O=C1c2cccc(O)c2C(=O)c2c(O)cccc21 [1,8-dihydroxyanthraquinone] .
Response: 36.3

Request: Name the recorded inhibition at 200 µM for COc1cc(C(=O)O)cc(OC)c1O [syringic acid] .
Response: 0

Request: Name the recorded inhibition at 200 µM for Nc1ncnc2c1ncn2[C@@H]1O[C@H](CO)C[C@H]1O [cordycepin] .
Response: 7.77

Request: Name the recorded inhibition at 200 µM for C=C1CC[C@@H]2[C@](C)(CO)[C@H](O)CC[C@@]2(C)[C@@H]1C/C=C1/C(=O)OC[C@H]1O [andrographolide] .
Response: 0

Request: Name the recorded inhibition at 200 µM for C=C1C(=O)O[C@@H]2/C=C(\C)CC/C=C(\C)CC[C@@H]12 [costunolide] .
Response: 41.8

Request: Name the recorded inhibition at 200 µM for COc1ccc2ccc(=O)oc2c1CC=C(C)C [osthole] .
Response: 0

Request: Name the recorded inhibition at 200 µM for COC1=C[C@@H]2[C@@H]3Cc4ccc(OC)c(O)c4[C@]2(CCN3C)CC1=O [sinomenine] .
Response: 3.77

Request: Name the recorded inhibition at 200 µM for C=C1CC[C@H]2C(=C)CC[C@H]3C(=C)C(=O)O[C@@H]3[C@@H]12 [dehydrocostuslactone] .
Response: 32.1

Request: Name the recorded inhibition at 200 µM for O=c1ccc2ccccc2o1 [coumarin] .
Response: 0

====

- Target Desc: Mtb proteasome (Mycobacterium tuberculosis)
- Construct: Proteasome activity of the supernatants was assessed; endogenous in cells; host or cells: Mycobacterium tuberculosis H37Ra (crude lysate supernatant)
- Assay Name: biochemical
- Assay Setup: 0.5 h, read-out: IA: inhibitory activity of Mtb proteasome
Counter-ions that a name gives are not always drawn.
Property: inhibition at 200 µM (%)
Hi! Could you send only the number? It should be in %, unit omitted.

Example compounds with recorded inhibition at 200 µM:
COc1c(O)cc2c(c1O)[C@@H]1O[C@H](CO)[C@@H](O)[C@H](O)[C@H]1OC2=O [bergenin] = 3.67
CC(=O)OC(C)(C)CCC(=O)[C@](C)(O)[C@H]1[C@H](O)C[C@@]2(C)[C@@H]3CC=C4[C@@H](C[C@H](O)[C@@H](O)C4(C)C)[C@]3(C)C(=O)C[C@]12C [hemslecin A] = 0
C=C[C@@H]1C2=CCOC(=O)C2=CO[C@H]1O[C@@H]1O[C@H](CO)[C@@H](O)[C@H](O)[C@H]1O [gentiopicroside] = 0
CC1(C)[C@@H](O)CC[C@]2(C)[C@H]3C(=O)C=C4[C@@H]5C[C@@](C)(C(=O)O)CC[C@]5(C)CC[C@@]4(C)[C@]3(C)CC[C@@H]12 [glycyrrhetinic Acid] = 0
CC(C)=CC[C@H](O)C1=CC(=O)c2c(O)ccc(O)c2C1=O [alkannin] = 52.4

Request: Name the recorded inhibition at 200 µM for C[C@@H]1O[C@@H](OC[C@H]2O[C@@H](Oc3c(-c4ccc(O)c(O)c4)oc4cc(O)cc(O)c4c3=O)[C@H](O)[C@@H](O)[C@@H]2O)[C@H](O)[C@H](O)[C@H]1O [rutin] .
Response: 0

Request: Name the recorded inhibition at 200 µM for CC(C)(C)[C@]1(O)CC2OC(=O)CC23C(=O)OC2OC(=O)[C@H](O)C231 (stereo partly drawn) [bilobalide] .
Response: 18.6

Request: Name the recorded inhibition at 200 µM for O=C1c2cccc(O)c2C(=O)c2c(O)cc(CO)cc21 [aloe-emodin] .
Response: 34.3

Request: Name the recorded inhibition at 200 µM for OC[C@H]1O[C@@H](OCCc2ccc(O)cc2)[C@H](O)[C@@H](O)[C@@H]1O [salidroside] .
Response: 34

Request: Name the recorded inhibition at 200 µM for C[C@@]12C[C@@]3(O)O[C@@H](O1)[C@]1(COC(=O)c4ccccc4)[C@H]3C[C@@]12O[C@@H]1O[C@H](CO)[C@@H](O)[C@H](O)[C@H]1O [paeoniflorin] .
Response: 3.05

Request: Name the recorded inhibition at 200 µM for C[C@@H]1CC[C@@]2(OC1)O[C@H]1C[C@H]3[C@@H]4CC=C5C[C@@H](O)CC[C@]5(C)[C@H]4CC[C@]3(C)[C@H]1[C@@H]2C [diosgenin] .
Response: 0

Request: Name the recorded inhibition at 200 µM for O=c1cc(-c2ccc(O)cc2)oc2cc(O)cc(O)c12 [apigenin] .
Response: 0

Request: Name the recorded inhibition at 200 µM for O[C@H]1[C@H]2c3cc4c(cc3CN3CCC(=C[C@@H]1O)[C@H]23)OCO4 [lycorine hydrochloride] .
Response: 0
